biological target: human CD33 K283A (human, UniProt P20138 18-364); experiment: alanine scan, flow cytometry, HEK293-T;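 also: antibody binding to each alanine-substituted CD33 mutant expressed transiently in HEK293-T, read as fluorescence minus background, mean of duplicates, relative to wild-type CD33 set as 100%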
Sequence (P20138 18-364 K283A limits assumed): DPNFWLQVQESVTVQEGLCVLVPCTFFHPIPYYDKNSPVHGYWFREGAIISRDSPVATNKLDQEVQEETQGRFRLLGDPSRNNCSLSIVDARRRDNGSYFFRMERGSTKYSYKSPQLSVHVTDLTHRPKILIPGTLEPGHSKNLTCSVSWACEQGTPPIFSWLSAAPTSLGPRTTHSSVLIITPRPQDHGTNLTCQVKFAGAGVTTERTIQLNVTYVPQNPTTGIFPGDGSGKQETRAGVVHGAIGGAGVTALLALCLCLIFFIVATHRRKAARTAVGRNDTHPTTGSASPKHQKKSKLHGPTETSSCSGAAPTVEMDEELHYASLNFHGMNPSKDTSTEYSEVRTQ
METRIC: Mean % WT Binding (% WT binding)
Answers are plain numbers, in % WT binding.

Below, each entry is followed by its recorded Mean % WT Binding result.
{"BINDER": "Refmab #1 (antibody, V domains shown, The alanine scan used IgG or Fab; also called hP67.6) VH: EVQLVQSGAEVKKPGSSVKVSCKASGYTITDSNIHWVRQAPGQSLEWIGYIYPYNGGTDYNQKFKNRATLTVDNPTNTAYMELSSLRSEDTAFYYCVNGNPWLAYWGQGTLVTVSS VL: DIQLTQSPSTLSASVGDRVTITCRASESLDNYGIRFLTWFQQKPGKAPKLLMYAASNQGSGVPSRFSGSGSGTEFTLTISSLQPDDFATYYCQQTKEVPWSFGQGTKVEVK", "Mean % WT Binding [% WT binding]": 92.7}
{"BINDER": "Refmab #3 (antibody, V domains shown, The alanine scan used IgG or Fab) VH: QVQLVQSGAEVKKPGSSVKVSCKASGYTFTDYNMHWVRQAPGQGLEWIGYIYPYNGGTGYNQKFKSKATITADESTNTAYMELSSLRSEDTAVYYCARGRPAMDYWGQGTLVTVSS VL: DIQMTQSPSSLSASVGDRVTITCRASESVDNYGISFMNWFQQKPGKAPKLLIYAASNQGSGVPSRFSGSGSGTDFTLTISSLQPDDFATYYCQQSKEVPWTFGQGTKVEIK", "Mean % WT Binding [% WT binding]": 90.9}
{"BINDER": "Refmab #4 (antibody, V domains shown, The alanine scan used IgG or Fab) VH: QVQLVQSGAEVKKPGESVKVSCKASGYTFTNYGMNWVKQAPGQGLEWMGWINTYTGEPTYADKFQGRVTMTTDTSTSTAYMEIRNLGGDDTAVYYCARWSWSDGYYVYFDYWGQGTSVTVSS VL: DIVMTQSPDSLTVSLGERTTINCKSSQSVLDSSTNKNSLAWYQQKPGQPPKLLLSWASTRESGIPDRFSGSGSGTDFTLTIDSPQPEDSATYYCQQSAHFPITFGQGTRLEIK", "Mean % WT Binding [% WT binding]": 84}

Now turn to the next binder.
Which Mean % WT Binding reading was recorded for the binder Refmab #2 (antibody, V domains shown, The alanine scan used IgG or Fab) VH: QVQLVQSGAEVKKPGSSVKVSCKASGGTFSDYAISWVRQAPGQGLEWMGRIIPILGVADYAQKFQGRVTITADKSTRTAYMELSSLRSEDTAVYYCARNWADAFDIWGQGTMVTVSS VL: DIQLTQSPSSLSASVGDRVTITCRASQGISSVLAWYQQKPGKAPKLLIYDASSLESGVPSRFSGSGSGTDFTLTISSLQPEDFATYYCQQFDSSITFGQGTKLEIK ?
102
